Entries and their Ki
TARGET_OR_TEST_SYSTEM: MOR (Rattus norvegicus)
Construct: from tissue
PROCEDURE_TEXT: Opioid receptor binding, MOR, rat brain membranes
CONDITION_SUMMARY: Binding Ki (nM) MOR, in vitro binding assay, rat brain membranes
Enter your answer as a number in nM; do not include the unit.

Reference set (6 entries):
> print(dat)
                                   compound    target.or.test.system  obs.value
1  CC[C@H](C)[C@H](N[C@@H]1CC[C@@]2(OC)[C@H]3Cc4ccc(O)c5c4[C@@]2(CCN3C)[C@H]1O5)C(=O)O  MOR (Rattus norvegicus)       1.46
2  COC12CCC(NC(C(=O)O)C(C)C)C3Oc4c(O)ccc5c4C31CCN(C)C2C5 (single isomer, unassigned) [Compound 29]  MOR (Rattus norvegicus)       3.04
3  CO[C@@]12CC[C@@H](N[C@@H](CC(C)C)C(=O)O)[C@@H]3Oc4c(O)ccc5c4[C@@]31CCN(C)[C@@H]2C5  MOR (Rattus norvegicus)       1.32
4  COC12CCC(NCCC(=O)O)C3Oc4c(O)ccc5c4C31CCN(C)C2C5 (single isomer, unassigned) [Compound 22]  MOR (Rattus norvegicus)       1.04
5  CCOC(=O)CN[C@@H]1CC[C@@]2(OC)[C@H]3Cc4ccc(O)c5c4[C@@]2(CCN3C)[C@H]1O5  MOR (Rattus norvegicus)       0.74
6  CO[C@@]12CC[C@H](N[C@@H](CCSC)C(=O)O)[C@@H]3Oc4c(O)ccc5c4[C@@]31CCN(C)[C@@H]2C5  MOR (Rattus norvegicus)       0.93

Entry CO[C@@]12CC[C@H](N[C@H](C(=O)O)[C@@H](C)O)[C@@H]3Oc4c(O)ccc5c4[C@@]31CCN(C)[C@@H]2C5 , Ki reported as 1.03

Entry CO[C@@]12CC[C@@H](N[C@@H](CO)C(=O)O)[C@@H]3Oc4c(O)ccc5c4[C@@]31CCN(C)[C@@H]2C5 , Ki reported as 2.14

###

TARGET_OR_TEST_SYSTEM: KOR (Cavia porcellus, UniProt P41144)
Construct: from tissue
Sequence (P41144 whole entry): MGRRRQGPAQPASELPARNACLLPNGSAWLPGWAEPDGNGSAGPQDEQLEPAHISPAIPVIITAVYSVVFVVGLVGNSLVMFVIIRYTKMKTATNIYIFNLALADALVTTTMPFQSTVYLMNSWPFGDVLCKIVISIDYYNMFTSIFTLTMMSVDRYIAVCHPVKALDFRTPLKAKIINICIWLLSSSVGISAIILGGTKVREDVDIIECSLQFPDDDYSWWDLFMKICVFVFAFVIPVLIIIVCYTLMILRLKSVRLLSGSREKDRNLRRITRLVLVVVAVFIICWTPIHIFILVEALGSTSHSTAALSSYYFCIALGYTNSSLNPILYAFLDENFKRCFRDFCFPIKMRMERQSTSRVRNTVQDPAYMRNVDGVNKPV
PROCEDURE_TEXT: Opioid receptor binding, KOR, guinea pig brain membranes
CONDITION_SUMMARY: Binding Ki KOR, Table 1-4, guinea pig brain membranes
EXPERIMENTAL_ENDPOINT: pKi
Just the number, please; pKi means minus log10 of the concentration in mol/L.

Reference set (5 entries):
> print(dat)
                                   compound  experimental.endpoint  obs.value
1  CC[C@H](C)[C@H](N[C@H]1CC[C@@]2(OC)[C@H]3Cc4ccc(O)c5c4[C@@]2(CCN3C)[C@H]1O5)C(=O)O                    pKi       6.88
2  CCO[C@@]12CC[C@@H](NCC(=O)O)[C@@H]3Oc4c(O)ccc5c4[C@@]31CCN(C)[C@@H]2C5                    pKi       6.99
3  CO[C@@]12CC[C@H](N[C@@H](CO)C(=O)O)[C@@H]3Oc4c(O)ccc5c4[C@@]31CCN(C)[C@@H]2C5                    pKi       6.71
4  COC12CCC(NC(C(=O)O)C(C)C)C3Oc4c(O)ccc5c4C31CCN(C)C2C5 (single isomer, unassigned) [Compound 29]                    pKi       6.52
5  CO[C@@]12CC[C@@H](N[C@@H](CO)C(=O)O)[C@@H]3Oc4c(O)ccc5c4[C@@]31CCN(C)[C@@H]2C5                    pKi       6.82

Now examine the next entry.
Entry CO[C@@]12CC[C@@H](N[C@H](C(=O)O)[C@@H](C)O)[C@@H]3Oc4c(O)ccc5c4[C@@]31CCN(C)[C@@H]2C5 , pKi reported as 7.23

###

TARGET_OR_TEST_SYSTEM: KOR (Cavia porcellus)
Construct: from tissue
PROCEDURE_TEXT: Opioid receptor binding, KOR, guinea pig brain membranes
CONDITION_SUMMARY: Binding Ki KOR, Table 1-6, guinea pig brain membranes
EXPERIMENTAL_ENDPOINT: pKi
Just the number, please; pKi means minus log10 of the concentration in mol/L.

Reference set (6 entries):
COMPOUND	pKi
O=C(O)CN[C@H]1CC[C@@]2(O)[C@H]3Cc4ccc(O)c5c4[C@@]2(CCN3CC2CC2)[C@H]1O5 [Compound 67]	8.55
CO[C@@]12CC[C@@H](NCCC(=O)O)[C@@H]3Oc4c(O)ccc5c4[C@@]31CCN(CC1CC1)[C@@H]2C5 [Compound 64]	7.93
CO[C@@]12CCC(=O)[C@@H]3Oc4c(O)ccc5c4[C@@]31CCN(CC1CC1)[C@@H]2C5 [Compound 14-OMe-NTX, 14-O-Methylnaltrexone, reference compound]	8.93
CO[C@@]12CC[C@@H](NCCCC(=O)O)[C@@H]3Oc4c(O)ccc5c4[C@@]31CCN(CC1CC1)[C@@H]2C5 [Compound 66]	7.77
CO[C@@]12CC[C@@H](N[C@@H](CC(=O)O)C(=O)O)[C@@H]3Oc4c(O)ccc5c4[C@@]31CCN(CC1CC1)[C@@H]2C5 [Compound 73]	7.93
O=C(O)C(Cc1ccccc1)NC1CCC2(O)C3Cc4ccc(O)c5c4C2(CCN3CC2CC2)C1O5 (single isomer, unassigned) [Compound 59]	8.58

Now examine the next entry.
Entry CO[C@@]12CC[C@@H](NCC(=O)O)[C@@H]3Oc4c(O)ccc5c4[C@@]31CCN(CC1CC1)[C@@H]2C5 [Compound 62] , pKi reported as 8.03

###

TARGET_OR_TEST_SYSTEM: MOR (Rattus norvegicus)
Construct: from tissue
PROCEDURE_TEXT: Opioid receptor binding, MOR, rat brain membranes
CONDITION_SUMMARY: Table 2-6, rat brain membranes; read-out: Binding Ki MOR
EXPERIMENTAL_ENDPOINT: pKi
Just the number, please; pKi means minus log10 of the concentration in mol/L.

Reference set (2 entries):
> print(dat)
                                 smiles.str  obs.value
1  CO[C@@]12CC[C@H](N[C@H](C(=O)OC(C)(C)C)C(C)C)[C@@H]3Oc4c(O)ccc5c4[C@@]31CCN(CC1CC1)[C@@H]2C5       8.74
2  CO[C@@]12CC[C@@H](NCC(=O)OC(C)(C)C)[C@@H]3Oc4c(O)ccc5c4[C@@]31CCN(CC1CC1)[C@@H]2C5       8.58

Entry CO[C@@]12CC[C@@H](N[C@@H](Cc3ccccc3)C(=O)O)[C@@H]3Oc4c(O)ccc5c4[C@@]31CCN(CC1CC1)[C@@H]2C5 , pKi reported as 8.91

###

TARGET_OR_TEST_SYSTEM: MOR (Rattus norvegicus)
Construct: from tissue
PROCEDURE_TEXT: Opioid receptor binding, MOR, rat brain membranes
CONDITION_SUMMARY: Binding Ki MOR, Table 2-6, rat brain membranes
EXPERIMENTAL_ENDPOINT: Ki (nM)
Enter your answer as a number in nM; do not include the unit.

> print(dat)
                                   molecule    target.or.test.system  experimental.endpoint  obs.value
1  COC12CCC(NC(C(=O)O)C(C)C)C3Oc4c(O)ccc5c4C31CCN(CC1CC1)C2C5 (single isomer, unassigned) [Compound 70]  MOR (Rattus norvegicus)                     Ki       0.62

Entry CO[C@@]12CC[C@H](NCC(=O)OC(C)(C)C)[C@@H]3Oc4c(O)ccc5c4[C@@]31CCN(CC1CC1)[C@@H]2C5 , Ki reported as 0.43

Entry CO[C@@]12CC[C@H](NCC(=O)O)[C@@H]3Oc4c(O)ccc5c4[C@@]31CCN(CC1CC1)[C@@H]2C5 , Ki reported as 0.68

Entry CO[C@@]12CC[C@@H](NCCCC(=O)OC(C)(C)C)[C@@H]3Oc4c(O)ccc5c4[C@@]31CCN(CC1CC1)[C@@H]2C5 , Ki reported as 2.13

###

Entries and their Ki
TARGET_OR_TEST_SYSTEM: MOR (Rattus norvegicus, UniProt P33535)
Construct: from tissue
Sequence (P33535 whole entry): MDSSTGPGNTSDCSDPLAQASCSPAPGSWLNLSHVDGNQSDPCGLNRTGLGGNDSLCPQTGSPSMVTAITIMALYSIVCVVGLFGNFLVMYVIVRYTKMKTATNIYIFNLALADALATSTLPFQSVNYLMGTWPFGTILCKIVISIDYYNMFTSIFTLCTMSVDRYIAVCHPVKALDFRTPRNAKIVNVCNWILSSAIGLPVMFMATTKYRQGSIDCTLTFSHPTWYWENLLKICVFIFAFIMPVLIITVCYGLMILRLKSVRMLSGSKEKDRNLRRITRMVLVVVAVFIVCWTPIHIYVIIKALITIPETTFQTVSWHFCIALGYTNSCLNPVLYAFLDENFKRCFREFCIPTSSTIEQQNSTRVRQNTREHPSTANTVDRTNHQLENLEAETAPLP
PROCEDURE_TEXT: Opioid receptor binding, MOR, rat brain membranes
CONDITION_SUMMARY: Binding Ki MOR, Table 2-6, rat brain membranes
Quote the value and follow it with the unit of measurement.

Sample CO[C@@]12CC[C@@H](N[C@H](C(=O)OC(C)(C)C)C(C)C)[C@@H]3Oc4c(O)ccc5c4[C@@]31CCN(CC1CC1)[C@@H]2C5 , system: MOR (Rattus norvegicus, UniProt P33535). Its Ki is 1.23 nM
